Target: T1, HaloTag-ATRX ADD domain (163-292)
T1 chain: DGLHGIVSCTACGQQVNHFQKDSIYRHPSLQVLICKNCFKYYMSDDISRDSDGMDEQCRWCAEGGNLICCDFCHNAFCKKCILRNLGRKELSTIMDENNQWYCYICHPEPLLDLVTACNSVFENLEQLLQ
Assay: peptide microarray binding signal (635 nm), min-max normalized on array (fraction of array maximum); higher = stronger binding
Conditions: peptide region: Unmod H3 variant; binder concentration: 50 nM
For each entry below, report its peptide microarray binding signal value.

GET /values?readout=peptide microarray binding signal&item= AIHAKRVTIMPKD [Unmod H3 variant A I H A K R V T I M P K D]
0.00414

Would you kindly repeat that for ARTKQTARKSTGG [Unmod H3 variant A R T K Q T A R K S T G G] ?
0.00445

Would you kindly repeat that for ATKAARKSAPATG [Unmod H3 variant A T K A A R K S A P A T G] ?
0.00646

Would you kindly repeat that for ALQEACEAYLVGL [Unmod H3 variant A L Q E A C E A Y L V G L] ?
0.00166

Ref: the supplement of paper PMC4022240
